Origin of measurements: paper PMC2365101

# IC50 listing for each entry below
measurement-target: human leukocyte elastase (RPMI 1788)
test-details: Elastase activity in human leukocytes RPMI 1788
Type: biochemical
reported-conditions: 60 min
State the answer as a number, implicitly in µM.

Reference set, count: 4
item-smiles: COc1c2cc(S(=O)(=O)O)cc1Cc1cc(S(=O)(=O)O)cc(c1OC)Cc1cc(S(=O)(=O)O)cc(c1OC)Cc1cc(S(=O)(=O)O)cc(c1OC)Cc1cc(S(=O)(=O)O)cc(c1OC)Cc1cc(S(=O)(=O)O)cc(c1OC)Cc1cc(S(=O)(=O)O)cc(c1OC)Cc1cc(S(=O)(=O)O)cc(c1OC)C2
IC50, µM: 54

item-smiles: O=S(=O)(O)c1cc2c(O)c(c1)Cc1cc(S(=O)(=O)O)cc(c1O)Cc1cc(S(=O)(=O)O)cc(c1O)Cc1cc(S(=O)(=O)O)cc(c1O)Cc1cc(S(=O)(=O)O)cc(c1O)Cc1cc(S(=O)(=O)O)cc(c1O)Cc1cc(S(=O)(=O)O)cc(c1O)Cc1cc(S(=O)(=O)O)cc(c1O)C2
IC50, µM: 57

item-smiles: O=S(=O)(O)c1cc2c(O)c(c1)Cc1cc(S(=O)(=O)O)cc(c1O)Cc1cc(S(=O)(=O)O)cc(c1O)Cc1cc(S(=O)(=O)O)cc(c1O)Cc1cc(S(=O)(=O)O)cc(c1O)Cc1cc(S(=O)(=O)O)cc(c1O)C2
IC50, µM: 67

item-smiles: O=S(=O)(O)c1cc2c(O)c(c1)Cc1cc(S(=O)(=O)O)cc(c1O)Cc1cc(S(=O)(=O)O)cc(c1O)Cc1cc(S(=O)(=O)O)cc(c1O)C2
IC50, µM: 73

Request: Look at this compound and give its reported IC50. COc1c2cc(S(=O)(=O)[O-])cc1Cc1cc(S(=O)(=O)[O-])cc(c1OC)Cc1cc(S(=O)(=O)[O-])cc(c1OC)Cc1cc(S(=O)(=O)[O-])cc(c1OC)Cc1cc(S(=O)(=O)[O-])cc(c1OC)Cc1cc(S(=O)(=O)[O-])cc(c1OC)C2.[Na+].[Na+].[Na+].[Na+].[Na+].[Na+]
Result: 275
